The values you see were collected from PubChem BioAssay (NCI).

# Test system: 786-0 renal
# PROTOCOL TEXT: NCI tumour cell line growth inhibition, 48 h; in the data active = GI50 below about 0.43 µM; inactive = the rest
Output constraint: value belongs to active, inactive

Check out these entries, answers already filled in.
CCC1=C(C)c2cc3[n-]c(cc4nc(c(C=O)c5[n-]c(cc1n2)c(C)c5CC)C(C)=C4CC)c(C)c3CC.[Ni+2]	inactive
CCOc1ccc2nc(S/C(=C/C=C(C#N)C#N)c3ccc(Cl)cc3)sc2c1	inactive

## Input What outcome does the record of this test show for `C[C@H](O)CNc1cc(-c2[nH]c3cccnc3c2-c2ccc(F)cc2)ccn1` ?
## Output inactive

## Input What outcome does the record of this test show for `CCOC(=O)c1ccc2[nH]c(O)c(C(=Nc3ccc(N(C)C(=O)CN4CCN(C)CC4)cc3)c3ccccc3)c2c1` ?
## Output active

## Input What outcome does the record of this test show for `CS(=O)(=O)Nc1ccc(Nc2c3ccccc3nc3cc(N)ccc23)cc1` ?
## Output active

## Input What outcome does the record of this test show for `Cn1c2c(c3ccc(-c4ccn[nH]4)cc3c1=O)C(=O)c1ccccc1-2` ?
## Output inactive

## Input What outcome does the record of this test show for CN1C(=O)N(C)C2C1NN=c1s/c(=C\c3ccccc3F)c(=O)n12 (centres undefined) ?
## Output inactive

## Input What outcome does the record of this test show for `Clc1ccc(N2CCN(CCCN3CCN(c4cccc(Cl)c4)CC3)CC2)cc1` ?
## Output inactive

## Input What outcome does the record of this test show for `COc1cc(-c2cc(/C=C/C(=O)c3ccc(N)cc3)[nH]n2)cc(OC)c1OC` ?
## Output inactive

## Input What outcome does the record of this test show for `CN1CCN(c2ccc(N3Cc4ccccc4OC4=C3C(=O)c3c(O)ccc(O)c3C4=O)cn2)CC1` ?
## Output active

## Input What outcome does the record of this test show for `CCN(CC)CCOc1nc2c3ccc(Cl)cc3nn2c2ccccc12` ?
## Output inactive

## Input What outcome does the record of this test show for `OCC#Cc1ccccc1C#CCCCCCCC#Cc1ccccc1C#CCO` ?
## Output inactive

## Input What outcome does the record of this test show for `Cc1ccc(NCCN2CCCCC2)c2c(=O)c3ccccc3sc12` ?
## Output inactive

## Input What outcome does the record of this test show for `CN1C(=O)/C(=C/c2c(Cl)[nH]c3ccccc23)c2ccccc21` ?
## Output inactive

====

# Test system: SNB-75 CNS
# PROTOCOL TEXT: NCI tumour cell line growth inhibition, 48 h; in the data active = GI50 below about 0.43 µM; inactive = the rest
Output constraint: value belongs to t (active), f (inactive)

Check out these entries, answers already filled in.
CC(=O)CC(=O)Nc1c(C)[c]([Hg][O]C(C)=O)c(C)[c]([Hg][O]C(C)=O)[c]1[Hg][O]C(C)=O	f
[Co+2].[O-]c1ccccc1C=NCc1ccccc1.[O-]c1ccccc1C=NCc1ccccc1	f
Cc1ccc(-c2cc3c(NC(=O)C4CC4)ncnc3o2)cc1	f
Oc1ccccc1N=Cc1c(O)ccc2ccccc12	f
O=C1c2ccccc2C(=O)c2c1ccc(C(Br)Br)c2Cl	f

## Input What outcome does the record of this test show for CN1C(=O)N(C)C2C1NN=c1s/c(=C\c3ccccc3F)c(=O)n12 (configuration not stated) ?
## Output t

## Input What outcome does the record of this test show for `C/C=C(\C)C(=O)O[C@H]1C=CC(=O)O[C@H]1CC[C@H](O)[C@H](C)O` ?
## Output f

====

Give GI50 for every item shown.
# Tested on: BT-549 breast
# PROTOCOL TEXT: NCI tumour cell line growth inhibition, 48 h

List the reported GI50 of each compound below.
1. CCCN1C(=O)/C(=C/c2cccc(O)c2)SC1=Nc1ccccc1
2. CCN(CC)CCNC(=O)c1cn2ncnc(Oc3ccc(NC(=O)Nc4ccc(Cl)c(C(F)(F)F)c4)cc3)c2c1C
3. CN1C(=O)CC2(C)c3cc(O)ccc3N(C)C12 (stereo not drawn)
4. NCCCCCCn1c2c(c3ccccc3c1=O)C(=O)c1ccccc1-2
5. O=C(O[C@H]1CN[C@H](C#Cc2cc3ncnc(Nc4ccc5c(cnn5Cc5ccccc5)c4)c3s2)C1)N1CCOCC1

## Output
17100 nM
1610 nM
30300 nM
1800 nM
3350 nM

List the reported GI50 of each compound below.
1. CCCN1C(=O)/C(=C/c2cccc(O)c2)SC1=Nc1ccc(OC)cc1
2. O=C(Nc1ccc(Cl)cc1)Nc1ccc(Oc2nncc3ccccc23)cc1
3. O=C1/C(=C/c2ccc(O)c(O)c2)COc2ccc(-c3ccccc3)cc21

## Output
8080 nM
2080 nM
2370 nM

====

# System: OVCAR-4 ovarian
# PROTOCOL TEXT: NCI tumour cell line growth inhibition, 48 h
VALUE KIND: TGI

N#C/C(=C/c1ccco1)C(=O)c1ccccc1	> 100 µM
NCCCCCCn1c2c(c3ccccc3c1=O)C(=O)c1ccccc1-2	7.24 µM
CC(=O)N(C)c1ccc2ncccc2c1[N+](=O)[O-]	> 100 µM
CC(C)OP(=O)(OC(C)C)C([CH2][Sn]([CH3])([CH3])[Cl])P(=O)(OC(C)C)OC(C)C	> 100 µM
CCOc1ccc(N=NC2C(=O)N(C(=O)CC(=O)Nc3ccc(C)cc3)N=C2C)cc1 (configuration not stated)	95.7 µM
CCCN1C(=O)/C(=C/c2cccc(O)c2)SC1=Nc1ccccc1	58.4 µM

List the reported TGI of each compound below.
1. CCCCCCCc1c(Cl)nc(Cl)nc1Cl
2. CCOC(=O)C(NC(=O)CC)(Nc1ccc(S(=O)(=O)Nc2ncccn2)cc1)C(F)(F)F (configuration not stated)

## Output
1. 9.87 µM
2. > 100 µM

List the reported TGI of each compound below.
1. C=C(CN(C)C)C1(c2ccccc2)CC2(CCCC2)C(=O)O1 (configuration not stated)
2. CC1=NN(c2nc(N)nc(COCc3nc(N)nc(N4N=C(C)CC4(C)C)n3)n2)C(C)(C)C1
3. Nc1nc(=S)c2c(ncn2CC(O)CO)[nH]1 (configuration not stated)
4. Cc1ccccc1OCC(COC(=O)Nc1ccccc1)OC(=O)Nc1ccccc1 (configuration not stated)

## Output
1. > 100 µM
2. > 100 µM
3. > 100 µM
4. > 100 µM

List the reported TGI of each compound below.
1. COc1ccc2c(-c3ccc(OCCN(C)C)cc3)c(Oc3ccccc3)c(=O)oc2c1
2. COc1cc(/C=C/c2ccc(/C=C/c3cc(OC)c(OC)c(OC)c3)cc2)cc(OC)c1OC
3. N/C(=N/N=C/c1cc(Br)cc(Br)c1O)NO
4. CSCCC(NC(=O)CNC(=O)C(CC(=O)O)NC(=O)C(NC(=O)C(NC(=O)C(NC(=O)CNC(=O)C(CCC(N)=O)NC(=O)C(CCSC)NC(=O)C(CC(=O)O)NC(=O)C(C)NC(=O)C(C)NC(=O)C(NC(=O)C(CO)NC(=O)C(N)CC(C)C)C(C)O)C(C)C)C(C)C)C(C)O)C(=O)NC(C)C(=O)NC(CO)C(=O)NCC(=O)NC(CC(C)C)C(=O)NC(CC(=O)O)C(=O)NC(CCCCN)C(=O)NC(CC(=O)O)C(=O)NC(Cc1ccc(O)cc1)C(=O)NC(CC(C)C)C(=O)NC(CCCCN)C(=O)N1CCCC1C(=O)NC(CC(=O)O)C(=O)NC(CC(=O)O)C(=O)O (configuration not stated)
5. CCN(CC)CCOc1nc2c3ccc(Cl)cc3nn2c2ccccc12

## Output
1. 40.7 µM
2. 18.1 µM
3. 71.4 µM
4. > 82.5 µM
5. 9.06 µM

====

Give TGI for every item shown.
# Test system: CCRF-CEM leukemia
# PROTOCOL TEXT: NCI tumour cell line growth inhibition, 48 h

// solved cases for TGI follow
O=C(Nc1nc2ncn(CCNCCn3cnc4nc(NC(=O)c5ccccc5)[nH]c(=O)c43)c2c(=O)[nH]1)c1ccccc1	> 100 µM
COS(=O)(=O)OCCC(NC(=O)OCc1ccccc1)C(=O)OCc1ccccc1 (stereo not given)	> 100 µM
Cc1ccc(-c2cc3c(NC(=O)C4CC4)ncnc3o2)cc1	> 25 µM
Nc1ccc2nc3n(c(=O)c2c1)CCCCC3	> 100 µM

Now examine the next entry.
## Input Give TGI for the following compound: `CC1=CC(=O)C(=C(C)C)CC1`
## Output > 100 µM

====

# Tested on: HCT-15 colon
# PROTOCOL TEXT: NCI tumour cell line growth inhibition, 48 h
Give GI50 for every item shown.

// solved cases for GI50 follow
Cc1cc(C)c(C#N)c(SCC(=O)c2sc3c(C#N)c(C)cc(C)[n+]3c2[O-])n1	0.242 µM
Cc1ccc(-c2cc3c(NC(=O)C4CC4)ncnc3o2)cc1	> 25 µM
CC(C)OP(=O)(OC(C)C)C([CH2][Sn]([CH3])([CH3])[Cl])P(=O)(OC(C)C)OC(C)C	20.2 µM
O=C1/C(=C/c2ccc(O)c(O)c2)COc2ccc(-c3ccccc3)cc21	0.697 µM
O=C(Nc1ccc(Cl)cc1)Nc1ccc(Oc2nncc3ccccc23)cc1	0.961 µM

List the reported GI50 of each molecule below.
1. CCN(CC)CCNC(=O)c1cn2ncnc(Oc3ccc(NC(=O)Nc4ccc(Cl)c(C(F)(F)F)c4)cc3)c2c1C
2. CN1C(=O)CC2(C)c3cc(O)ccc3N(C)C12 (stereo not given)

## Output
["1.62 µM", "14.3 µM"]
